System: hTF (Thromborel S) (human, UniProt P13726 33-295)
Sequence (P13726 33-295 limits assumed): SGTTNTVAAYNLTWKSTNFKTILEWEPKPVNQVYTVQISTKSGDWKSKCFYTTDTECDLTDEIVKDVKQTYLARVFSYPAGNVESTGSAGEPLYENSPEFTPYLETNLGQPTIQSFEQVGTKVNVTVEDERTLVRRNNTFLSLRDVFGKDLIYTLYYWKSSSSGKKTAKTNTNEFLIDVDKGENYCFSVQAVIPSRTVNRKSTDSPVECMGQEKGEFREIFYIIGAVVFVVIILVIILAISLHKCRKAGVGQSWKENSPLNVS
Measurement protocol: cell-based or functional assay
Listed next: entries and their corresponding Calculated concentration (ng/ml) at 250 ng/ml added.
Recorded metric: Calculated concentration (ng/ml) at 250 ng/ml added (ng/mL)

[
  {
    "Binder": "anti-human TF antibody N51D mutant (antibody, human IgG4 S228P, kappa, V domains shown) VH: QVQLLESGAVLARPGTSVKISCKASGFNIKDYYMHWVKQRPGQGLEWIGGDDPANGHSMYDPKFQGRVTITADTSTSTVFMELSSLRSEDTAVYYCARDSGYAMDYWGQGTLVTVSS VL: DIQMTQSPSSLSASVGDRVTITCKASQDIKSFLSWYQQKPEKAPKSLIYYATSLADGVPSRFSGSGSGTDYTLTISSLQPEDFATYYCLQHGESPYTFGGGTKVEIKR",
    "Endpoint unit": "ng/mL",
    "Measured result": 164
  },
  {
    "Binder": "anti-human TF antibody N51D/N55D double mutant (antibody, human IgG4 S228P, kappa, V domains shown) VH: QVQLLESGAVLARPGTSVKISCKASGFNIKDYYMHWVKQRPGQGLEWIGGDDPADGHSMYDPKFQGRVTITADTSTSTVFMELSSLRSEDTAVYYCARDSGYAMDYWGQGTLVTVSS VL: DIQMTQSPSSLSASVGDRVTITCKASQDIKSFLSWYQQKPEKAPKSLIYYATSLADGVPSRFSGSGSGTDYTLTISSLQPEDFATYYCLQHGESPYTFGGGTKVEIKR",
    "Endpoint unit": "ng/mL",
    "Measured result": 31.3
  },
  {
    "Binder": "anti-human TF antibody N28D mutant (antibody, human IgG4 S228P, kappa, V domains shown) VH: QVQLLESGAVLARPGTSVKISCKASGFDIKDYYMHWVKQRPGQGLEWIGGNDPANGHSMYDPKFQGRVTITADTSTSTVFMELSSLRSEDTAVYYCARDSGYAMDYWGQGTLVTVSS VL: DIQMTQSPSSLSASVGDRVTITCKASQDIKSFLSWYQQKPEKAPKSLIYYATSLADGVPSRFSGSGSGTDYTLTISSLQPEDFATYYCLQHGESPYTFGGGTKVEIKR",
    "Endpoint unit": "ng/mL",
    "Measured result": 253
  },
  {
    "Binder": "anti-human TF antibody described in WO 99/51743 (humanized heavy chain version i, humanized light chain version b2) (antibody, human IgG4 S228P, kappa, V domains shown, Expressed as human IgG from vector pN5KG4P-AHi-ALb2; also called original anti-human TF antibody; Original) VH: QVQLLESGAVLARPGTSVKISCKASGFNIKDYYMHWVKQRPGQGLEWIGGNDPANGHSMYDPKFQGRVTITADTSTSTVFMELSSLRSEDTAVYYCARDSGYAMDYWGQGTLVTVSS VL: DIQMTQSPSSLSASVGDRVTITCKASQDIKSFLSWYQQKPEKAPKSLIYYATSLADGVPSRFSGSGSGTDYTLTISSLQPEDFATYYCLQHGESPYTFGGGTKVEIKR",
    "Endpoint unit": "ng/mL",
    "Measured result": 248
  }
]
